Reported recombinant barcode read abundance (log10) values for a set of sequences
Test: recombinant barcode read abundance after kanamycin selection (control-corrected) (log10(CPM+1)); higher = more efficient recombination; sequences stand for … in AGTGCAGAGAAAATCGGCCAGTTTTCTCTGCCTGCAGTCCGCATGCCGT…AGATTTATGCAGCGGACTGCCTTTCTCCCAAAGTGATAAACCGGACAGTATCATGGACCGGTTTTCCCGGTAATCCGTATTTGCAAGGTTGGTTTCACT; site = the 11-nt target
reported-metric: recombinant barcode read abundance (log10)

sequence_content="GACTTAACTTGGGTTCTAACCTGTTGCTT (site GACTTAACTAA)" measured_result=0.48
sequence_content="CGGTGTCCTTGGGTTCTAACCTGTTGCTA (site CGGCGTCCTTA)" measured_result=0.586
sequence_content="TGACTAGCTTGGGTTCTAACCTGTTGCCT (site TGACTAGCTAG)" measured_result=0.176
sequence_content="TATTATACTTGGGTTCTAACCTGTTGCTT (site TATTATACTAG)" measured_result=0.245
sequence_content="CGTCCTCCTTGGGTTCTAACCTGTTGCAT (site CGTCCTCCTAT)" measured_result=0.089

###

Assay: recombinant barcode read abundance after kanamycin selection (control-corrected) (log10(CPM+1)); higher = more efficient recombination; sequences stand for … in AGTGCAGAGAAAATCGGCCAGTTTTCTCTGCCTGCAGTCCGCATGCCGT…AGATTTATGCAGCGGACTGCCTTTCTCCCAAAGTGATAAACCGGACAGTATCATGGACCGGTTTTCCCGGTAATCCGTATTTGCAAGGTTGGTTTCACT; site = the 11-nt target
Recorded recombinant barcode read abundance (log10) for the following sequences
reported-metric: recombinant barcode read abundance (log10)

sequence_content="GCAAGTCCTTGGGTTCTAACCTGTTGCGT (site CATGCCTCTCG)" measured_result=0.0651
sequence_content="CACTTTGCTTGGGTTCTAACCTGTTGCCT (site CACTTTGCTAG)" measured_result=0.207
sequence_content="GAGAGGTCTTGGGTTCTAACCTGTTGCTT (site GAGAGGTCTAG)" measured_result=0.893
sequence_content="TGGCTATCTTGGGTTCTAACCTGTTGCCT (site TGGCTATCTAG)" measured_result=0.187
sequence_content="TATCCATCTTGGGTTCTAACCTGTTGCCT (site TAACCATCTAG)" measured_result=0.0695
sequence_content="GAAGCGCCTTGGGTTCTAACCTGTTGCCT (site GAAGTGCCTAG)" measured_result=0.397
sequence_content="CAGTCTACTTGGGTTCTAACCTGTTGCCT (site CTGTCTACTAG)" measured_result=0.0878
sequence_content="AAGCTGCCTTGGGTTCTAACCTGTTGCCT (site GAGCTGCCTAA)" measured_result=0.049
sequence_content="TAGGCGCCTTGGGTTCTAACCTGTTGCGT (site TAGGCGCCTAA)" measured_result=0.0787
sequence_content="GAGCCATCTTGGGTTCTAACCTGTTGCTT (site GAGTCGTCTAA)" measured_result=0.261
sequence_content="ATATGTACTTGGGTTCTAACCTGTTGCCA (site ATATGTACTCG)" measured_result=0.22
sequence_content="CTTCAGCCTTGGGTTCTAACCTGTTGCCT (site CTTCAGCCTAG)" measured_result=0.789
sequence_content="TCCTTAGCTTGGGTTCTAACCTGTTGCCT (site TCCTTAGCTAG)" measured_result=0.579
sequence_content="GTGAGTGCTTGGGTTCTAACCTGTTGCCA (site ATAAGTGCTTG)" measured_result=0.475
sequence_content="GTCAATCCTTGGGTTCTAACCTGTTGCGT (site GTCAATCCTAC)" measured_result=1.98
sequence_content="TAGCCATCTTGGGTTCTAACCTGTTGCCT (site TAGCCATCTAG)" measured_result=0.121
sequence_content="ACTAGGACTTGGGTTCTAACCTGTTGCGC (site ACTAGGACTGC)" measured_result=2.3
sequence_content="GCGCTTACTTGGGTTCTAACCTGTTGCCT (site GAGCTTACTAG)" measured_result=0.191
sequence_content="TCGGATACTTGGGTTCTAACCTGTTGCCA (site TCGGATACTTG)" measured_result=0.456
sequence_content="CTCTAGTCTTGGGTTCTAACCTGTTGCCT (site CTCTAGTCTAC)" measured_result=0.792
sequence_content="ACGCATTCTTGGGTTCTAACCTGTTGCCT (site ACGCACTCTAG)" measured_result=0.123
sequence_content="CATGCGACTTGGGTTCTAACCTGTTGCTG (site CATGCTACTGA)" measured_result=0.351
sequence_content="TGTCGCACTTGGGTTCTAACCTGTTGCAG (site TGTAGCACTGT)" measured_result=0.123
sequence_content="GGCAGTCCTTGGGTTCTAACCTGTTGCCT (site GGCAGTCCTAA)" measured_result=0.111
sequence_content="GCTATGTCTTGGGTTCTAACCTGTTGCCT (site GGTATGTCTAA)" measured_result=0.0851
sequence_content="TATACAGCTTGGGTTCTAACCTGTTGCCT (site TATACAGCTAG)" measured_result=0.592
sequence_content="TTGTACACTTGGGTTCTAACCTGTTGCTC (site TTGTACACTGA)" measured_result=1.06
sequence_content="GGGAAGACTTGGGTTCTAACCTGTTGCCT (site GGGAAGACTAG)" measured_result=2.55
sequence_content="ATATGTACTTGGGTTCTAACCTGTTGCCA (site ATATGTACTTG)" measured_result=0.733
sequence_content="GAGTTTCCTTGGGTTCTAACCTGTTGCAG (site GAGCGTCCTCT)" measured_result=0.118
sequence_content="GGACATGCTTGGGTTCTAACCTGTTGCGT (site CGACATACTAC)" measured_result=0.219
sequence_content="TCTCACTCTTGGGTTCTAACCTGTTGCCT (site TCACACTCTAG)" measured_result=0.0111
sequence_content="CCTGGGACTTGGGTTCTAACCTGTTGCGC (site CCTGGGACTAC)" measured_result=0.684
sequence_content="AGACGTCCTTGGGTTCTAACCTGTTGCTT (site AGACATCCTAA)" measured_result=0.197
sequence_content="ATTAAGTCTTGGGTTCTAACCTGTTGCCT (site AATAAGTCTAG)" measured_result=0.0662
sequence_content="TTAGTAGCTTGGGTTCTAACCTGTTGCCT (site TTAGTAGCTAG)" measured_result=1.84
sequence_content="TGAACGTCTTGGGTTCTAACCTGTTGCCT (site TGAACGTCTAG)" measured_result=0.384
sequence_content="GGCACCACTTGGGTTCTAACCTGTTGCCT (site GGCACGACTAG)" measured_result=0.0916
sequence_content="TAGAAGTCTTGGGTTCTAACCTGTTGCAG (site TAGATGTCTCC)" measured_result=0.0783
sequence_content="AGTTTAACTTGGGTTCTAACCTGTTGCAC (site AGTTTAACTGT)" measured_result=0.0458
sequence_content="AGTAGGACTTGGGTTCTAACCTGTTGCCT (site GGTAGGACTAG)" measured_result=0.0674
sequence_content="CGTCCTGCTTGGGTTCTAACCTGTTGCTT (site TAGGGGACTTT)" measured_result=0.0676

###

Test: recombinant UMI read abundance after kanamycin selection (control-corrected) (log10(CPM+1)); higher = more efficient recombination; extreme values may be limits of the assay; sequences stand for … in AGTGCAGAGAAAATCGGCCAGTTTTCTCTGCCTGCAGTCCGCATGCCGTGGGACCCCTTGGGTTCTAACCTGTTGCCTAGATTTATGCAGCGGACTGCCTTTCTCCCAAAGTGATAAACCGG…AGGTTGGTTTCACT; site = the 11-nt donor
reported-metric: recombinant UMI read abundance (log10)

sequence_content="CCGAATACATGGACCGGTTTTCCCGGTAATCCGTATTTGGC (site CCGAATACTGC)" measured_result=0
sequence_content="GCATCGACATGGACCGGTTTTCCCGGTAATCCGTATTTGCA (site GCATCGACTTG)" measured_result=2.56
sequence_content="TGCCCGGCATGGACCGGTTTTCCCGGTAATCCGTATTTGGC (site TGCCCGGCTGC)" measured_result=0
sequence_content="AGAGTATCATGGACCGGTTTTCCCGGTAATCCGTATTTGCA (site ATAGTATCTTG)" measured_result=1.83
sequence_content="GTAAAGTCATGGACCGGTTTTCCCGGTAATCCGTATTTGCA (site GTAAAGTCTTG)" measured_result=2.95
